target: oestrone sulphatase (Homo sapiens); settings: concentration tested 50 mM (so in the source)
Sequence (P08842 22-583): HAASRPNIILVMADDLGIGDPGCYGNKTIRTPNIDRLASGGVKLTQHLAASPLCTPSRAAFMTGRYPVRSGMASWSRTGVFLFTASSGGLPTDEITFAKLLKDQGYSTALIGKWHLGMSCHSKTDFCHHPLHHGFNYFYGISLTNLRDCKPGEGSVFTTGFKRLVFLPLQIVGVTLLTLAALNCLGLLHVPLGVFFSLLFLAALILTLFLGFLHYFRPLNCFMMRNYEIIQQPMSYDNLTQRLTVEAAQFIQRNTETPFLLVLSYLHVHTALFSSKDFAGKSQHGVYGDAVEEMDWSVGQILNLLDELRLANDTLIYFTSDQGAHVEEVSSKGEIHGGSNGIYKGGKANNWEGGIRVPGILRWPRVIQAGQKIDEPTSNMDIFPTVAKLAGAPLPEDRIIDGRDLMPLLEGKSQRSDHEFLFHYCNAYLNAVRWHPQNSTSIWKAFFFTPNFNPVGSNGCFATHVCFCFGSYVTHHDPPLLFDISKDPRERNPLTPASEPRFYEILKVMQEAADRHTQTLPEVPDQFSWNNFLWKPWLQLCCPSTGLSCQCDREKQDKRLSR
% Inhibition (Mean) Placental Microsomes vs 70%: at or above is Condition met, below is Condition not met.

MOLECULE | CLASS LABEL
CCCc1cc2c(cc1OS(N)(=O)=O)CC[C@@H]1[C@@H]2CC[C@]2(C)C(=O)CC[C@@H]12 [2-n-propyl EMATE] | Condition not met
C=CCc1cc2c(cc1OS(N)(=O)=O)CC[C@@H]1[C@@H]2CC[C@]2(C)C(=O)CC[C@@H]12 [2-allyl EMATE] | Condition met
COc1cc2c(cc1OS(N)(=O)=O)CC[C@@H]1[C@@H]2CC[C@]2(C)C(=O)CC[C@@H]12 [2-methoxy EMATE] | Condition met
C=CCc1c(OS(N)(=O)=O)ccc2c1CC[C@@H]1[C@@H]2CC[C@]2(C)C(=O)CC[C@@H]12 [4-allyl EMATE] | Condition not met
CCCc1c(OS(N)(=O)=O)ccc2c1CC[C@@H]1[C@@H]2CC[C@]2(C)C(=O)CC[C@@H]12 [4-n-propyl EMATE] | Condition not met
C[C@]12CC[C@@H]3c4cc([N+](=O)[O-])c(OS(N)(=O)=O)cc4CC[C@H]3[C@@H]1CCC2=O [2-nitro EMATE] | Condition met
